# System: glutamine synthetase (GS)
# test-details: glutamine synthetase inhibition assay (glutamine synthetase activity assay kit, Abcam)
# Format: biochemical
# conditions: Table S5, assay 2 of 3; 1 mM inhibitor final concn; enzyme pre-incubated with inhibitor 37 °C 10 min; reaction 37 °C 60 min; colorimetric ADP detection, A570 (average of 3 readings), background subtracted, vs enzyme control
property-label: Inhibition (%) of glutamine synthetase, Assay 2

>  <substance>
Ac-YGMLNP-NH2 [3b]

>  <unit-abbrev>
%

>  <measured-number>
1.0

$$$$
>  <substance>
Ac-FPQSGM-NH2 [5b]

>  <unit-abbrev>
%

>  <measured-number>
13.0

$$$$
>  <substance>
Ac-MGRFTINP-NH2 [6b]

>  <unit-abbrev>
%

>  <measured-number>
26.2

$$$$
>  <substance>
Ac-SYSMEHFRWGKPV-NH2 (α-MSH) [8b]

>  <unit-abbrev>
%

>  <measured-number>
33.6

$$$$
>  <substance>
Ac-VGMSWP-NH2 [4b]

>  <unit-abbrev>
%

>  <measured-number>
15.5

$$$$
>  <substance>
Ac-RPKPQQFFGLM-NH2 (substance P) [7b]

>  <unit-abbrev>
%

>  <measured-number>
3.1

$$$$

---

Parameter Inhibition (%) of glutamine synthetase, Assay 3: see the listing below.
# Test system: glutamine synthetase (GS)
# test-details: glutamine synthetase inhibition assay (glutamine synthetase activity assay kit, Abcam)
# Format: biochemical
# conditions: Table S6, assay 3 of 3; 1 mM inhibitor final concn; enzyme pre-incubated with inhibitor 37 °C 10 min; reaction 37 °C 60 min; colorimetric ADP detection, A570 (average of 3 readings), background subtracted, vs enzyme control
property-label: Inhibition (%) of glutamine synthetase, Assay 3

>  <substance>
Ac-MGRFTINP-NH2 [6b]

>  <unit-abbrev>
%

>  <measured-number>
24.1

$$$$
>  <substance>
Ac-SYSMEHFRWGKPV-NH2 (α-MSH) [8b]

>  <unit-abbrev>
%

>  <measured-number>
36.1

$$$$
>  <substance>
Ac-YGMLNP-NH2 [3b]

>  <unit-abbrev>
%

>  <measured-number>
0.8

$$$$
>  <substance>
Ac-VGMSWP-NH2 [4b]

>  <unit-abbrev>
%

>  <measured-number>
14.3

$$$$
>  <substance>
Ac-RPKPQQFFGLM-NH2 (substance P) [7b]

>  <unit-abbrev>
%

>  <measured-number>
3.7

$$$$
>  <substance>
Ac-FPQSGM-NH2 [5b]

>  <unit-abbrev>
%

>  <measured-number>
12.1

$$$$

---

# Tested on: glutamine synthetase (GS)
# test-details: glutamine synthetase inhibition assay (glutamine synthetase activity assay kit, Abcam)
# Type: biochemical
# conditions: Table S7, average of assay 1, 2 and 3 (mean of 3 independent experiments); 1 mM inhibitor; pre-incubation 37 °C 10 min; reaction 37 °C 60 min; A570
Hi, to clarify the labels: YES covers Average inhibition (%) of glutamine synthetase from 10% upward, NO covers anything below 10%.

>  <substance>
Ac-RPKPQQFFGLM-NH2 (substance P) [7b]

>  <target-of-assay>
glutamine synthetase (GS)

>  <class-assignment>
NO

$$$$
>  <substance>
Ac-MGRFTINP-NH2 [6b]

>  <target-of-assay>
glutamine synthetase (GS)

>  <class-assignment>
YES

$$$$
>  <substance>
Ac-SYSMEHFRWGKPV-NH2 (α-MSH) [8b]

>  <target-of-assay>
glutamine synthetase (GS)

>  <class-assignment>
YES

$$$$
>  <substance>
Ac-VGMSWP-NH2 [4b]

>  <target-of-assay>
glutamine synthetase (GS)

>  <class-assignment>
YES

$$$$
>  <substance>
Ac-FPQSGM-NH2 [5b]

>  <target-of-assay>
glutamine synthetase (GS)

>  <class-assignment>
YES

$$$$

---

# Test system: glutamine synthetase (GS)
# test-details: glutamine synthetase inhibition assay (glutamine synthetase activity assay kit, Abcam)
# Assay type: biochemical
# conditions: Table S4, assay 1 of 3; 1 mM inhibitor final concn; enzyme pre-incubated with inhibitor 37 °C 10 min; reaction 37 °C 60 min; colorimetric ADP detection, A570 (average of 3 readings), background subtracted, vs enzyme control
property-label: Inhibition (%) of glutamine synthetase, Assay 1

>  <substance>
Ac-RPKPQQFFGLM-NH2 (substance P) [7b]

>  <target-of-assay>
glutamine synthetase (GS)

>  <result>
1.7%

$$$$
>  <substance>
Ac-YGMLNP-NH2 [3b]

>  <target-of-assay>
glutamine synthetase (GS)

>  <result>
0.9%

$$$$
>  <substance>
Ac-SYSMEHFRWGKPV-NH2 (α-MSH) [8b]

>  <target-of-assay>
glutamine synthetase (GS)

>  <result>
35.3%

$$$$
>  <substance>
Ac-VGMSWP-NH2 [4b]

>  <target-of-assay>
glutamine synthetase (GS)

>  <result>
13.3%

$$$$
>  <substance>
Ac-MGRFTINP-NH2 [6b]

>  <target-of-assay>
glutamine synthetase (GS)

>  <result>
28.6%

$$$$
>  <substance>
Ac-FPQSGM-NH2 [5b]

>  <target-of-assay>
glutamine synthetase (GS)

>  <result>
9.5%

$$$$
